system: T1, human CTLA-4 (Y201V), full length, on transfected cells (human, UniProt P16410 36-223)
T1 construct: whole, on cells; also called hCTLA-4; HEK293-hCTLA-4 (Y201V)
T1 sequence (looked up): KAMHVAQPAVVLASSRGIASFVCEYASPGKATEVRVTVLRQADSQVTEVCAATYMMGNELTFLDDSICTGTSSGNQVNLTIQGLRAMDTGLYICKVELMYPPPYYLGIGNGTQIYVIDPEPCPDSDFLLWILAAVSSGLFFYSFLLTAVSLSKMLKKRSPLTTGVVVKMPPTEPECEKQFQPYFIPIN
measurement notes: FACS, human CTLA-4 expressing cells
measurement name: MFI at 0.32 nM
Give a plain numeric answer without units written out.

[[record]]
binder = "40C4C6 fully human CTLA-4 antibody (human IgG1, kappa) (antibody, V domains shown, also called mAb09; mAb009) VH: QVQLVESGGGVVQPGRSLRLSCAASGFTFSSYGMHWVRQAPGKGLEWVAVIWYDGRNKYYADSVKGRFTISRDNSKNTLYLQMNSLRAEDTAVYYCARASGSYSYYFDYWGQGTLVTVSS VL: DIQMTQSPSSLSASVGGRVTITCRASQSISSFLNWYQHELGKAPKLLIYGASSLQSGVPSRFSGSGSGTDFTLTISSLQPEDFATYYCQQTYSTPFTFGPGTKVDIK"
measurement_name = "MFI at 0.32 nM"
value_measured = 233

[[record]]
binder = "97A8D1 fully human CTLA-4 antibody (human IgG1, kappa) (antibody, V domains shown, also called mAb49; mAb049) VH: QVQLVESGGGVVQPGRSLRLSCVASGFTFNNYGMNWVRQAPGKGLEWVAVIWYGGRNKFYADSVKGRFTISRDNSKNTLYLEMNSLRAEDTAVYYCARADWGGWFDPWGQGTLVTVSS VL: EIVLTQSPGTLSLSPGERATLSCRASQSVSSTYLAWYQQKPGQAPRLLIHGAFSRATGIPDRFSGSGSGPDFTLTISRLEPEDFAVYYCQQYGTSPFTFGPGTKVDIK"
measurement_name = "MFI at 0.32 nM"
value_measured = 196


Q: Tell me MFI at 0.32 nM reported for 92C8B6 fully human CTLA-4 antibody (human IgG1, kappa) (antibody, V domains shown, also called mAb42; mAb042) VH: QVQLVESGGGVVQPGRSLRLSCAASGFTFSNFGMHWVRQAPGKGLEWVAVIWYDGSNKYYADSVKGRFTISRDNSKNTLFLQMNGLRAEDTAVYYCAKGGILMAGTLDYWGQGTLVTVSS VL: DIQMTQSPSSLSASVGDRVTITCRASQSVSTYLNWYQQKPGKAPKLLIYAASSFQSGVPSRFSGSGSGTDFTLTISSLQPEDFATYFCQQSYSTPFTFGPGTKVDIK
Ans: 203

Q: Tell me MFI at 0.32 nM reported for 31C12F3 fully human CTLA-4 antibody (human IgG1, kappa) (antibody, V domains shown, also called mAb010) VH: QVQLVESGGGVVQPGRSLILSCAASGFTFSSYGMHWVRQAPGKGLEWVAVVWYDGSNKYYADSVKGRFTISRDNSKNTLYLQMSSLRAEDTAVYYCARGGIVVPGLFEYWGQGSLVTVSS VL: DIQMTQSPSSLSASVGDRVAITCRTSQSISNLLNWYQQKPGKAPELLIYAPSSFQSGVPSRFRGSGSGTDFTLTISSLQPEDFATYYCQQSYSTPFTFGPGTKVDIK
Ans: 260
